- System: RSV A strain A2
- assay remarks: In vitro antiviral assay against RSV A strain A2 in HEp-2 cells (ELISA, virus titer)
- Assay type: cell-based, respiratory syncytial virus
- condition parameters: selectivity index, CC50/IC50 ratio, RSV A2 / HEp-2
// SI lookup, one value per entry
Output spec: single numeric token, no unit.

Take a look at these entries with their results.
{"columns": ["compound", "SI"],
 "data": [
  ["CCN1CCN(CCC(=O)O[C@@H]2C[C@@H]3CC[C@@]2(C)C3(C)C)CC1 [Compound 10b]", 20],
  ["CN(C)CCC(=O)O[C@@H]1C[C@@H]2CC[C@@]1(C)C2(C)C", 111]
]}

Query: # SI lookup, item `CC1CCN(CCCC(=O)O[C@@H]2C[C@@H]3CC[C@@]2(C)C3(C)C)CC1`
Response: 3

Query: Please look up its SI: `CCN(CC)CC(=O)O[C@@H]1C[C@@H]2CC[C@@]1(C)C2(C)C`
Response: 2

Query: // lookup SI for `CC1CCN(CC(=O)O[C@@H]2C[C@@H]3CC[C@@]2(C)C3(C)C)CC1`
Response: 4

Query: Quick one: SI for `CN(C)CC(=O)O[C@@H]1C[C@@H]2CC[C@@]1(C)C2(C)C` ?
Response: 4

Query: Please look up its SI: CC1(C)[C@H]2CC[C@]1(C)[C@H](OC(=O)CCCN1CCN(Cc3ccccc3)CC1)C2 [Compound 11c]
Response: 3
